- Tested on: NCI-H460
- method notes: MTT proliferation assay, NCI-H460
- Type: cell-based, human
- study conditions: Homo sapiens; NSCLC, NCI-H460, 120 h of exposure
measured attribute: IC50

Look over these answered cases.
Entry under test: `COc1ccc([C@@H]2c3ccc(O)c(C)c3OC[C@@H]2c2ccc(O)cc2)cc1C` . Its IC50 was ≥ 10 µM

Entry under test: `Cc1c(O)ccc2c1OC[C@H](c1ccc(O)cc1)[C@@H]2c1ccc(O)cc1` . Its IC50 was ≥ 10 µM

Attention now turns to another entry.
Entry under test: Cc1cc(C2c3ccc(O)c(C)c3OCC2c2ccc(O)cc2)ccc1O (stereo not drawn) . Its IC50 was 0.15 to 0.5 µM
